- PROTOCOL SUMMARY: Drug uptake in FVB/NJ mouse brain at 25 mg/kg, ip measured after 60 mins post dose by LC-MS/MS analysis
- Type: ADME, organism-based
- RUN CONDITIONS: read-out: Drug uptake

| SMILES RECORD | concentration at 1 h / ng/g |
| --- | --- |
| COc1cc(CCc2cc(NS(=O)(=O)c3ccccn3)c3ncccc3c2)cc(OC)c1 | 6700 |

====

- PROTOCOL SUMMARY: Drug uptake in FVB/NJ mouse brain at 12.5 mg/kg, ip measured after 30 mins post dose by LC-MS/MS analysis
- Type: ADME, organism-based
- RUN CONDITIONS: read-out: Drug uptake
VALUE TYPE: concentration at 0.5 h (ng/g)

| SMILES RECORD | RESULT NUMBER |
| --- | --- |
| COc1cc(CCc2cc(NS(=O)(=O)c3ccccn3)c3ncccc3c2)cc(OC)c1 | 2100 |

Taken from ChEMBL document CHEMBL4368911.
